These measurements were taken from patent US9796711B2.

molecular target: ΔF508-CFTR (Homo sapiens, UniProt P13569, DEL508-508); construct: host or cells: CFBE41o-, doxycycline-inducible; test: CFTR cell surface levels using HRP-tagged ΔF508-CFTR expressing CFBE cells, in the presence of a co-corrector; assay type: cell-based; conditions: HRP-tagged ΔF508-CFTR expressing CFBE cells, in the presence of 3 μM co-corrector; read-out: EC50
Sequence (P13569 with tags, fused parts or gaps DEL508-508): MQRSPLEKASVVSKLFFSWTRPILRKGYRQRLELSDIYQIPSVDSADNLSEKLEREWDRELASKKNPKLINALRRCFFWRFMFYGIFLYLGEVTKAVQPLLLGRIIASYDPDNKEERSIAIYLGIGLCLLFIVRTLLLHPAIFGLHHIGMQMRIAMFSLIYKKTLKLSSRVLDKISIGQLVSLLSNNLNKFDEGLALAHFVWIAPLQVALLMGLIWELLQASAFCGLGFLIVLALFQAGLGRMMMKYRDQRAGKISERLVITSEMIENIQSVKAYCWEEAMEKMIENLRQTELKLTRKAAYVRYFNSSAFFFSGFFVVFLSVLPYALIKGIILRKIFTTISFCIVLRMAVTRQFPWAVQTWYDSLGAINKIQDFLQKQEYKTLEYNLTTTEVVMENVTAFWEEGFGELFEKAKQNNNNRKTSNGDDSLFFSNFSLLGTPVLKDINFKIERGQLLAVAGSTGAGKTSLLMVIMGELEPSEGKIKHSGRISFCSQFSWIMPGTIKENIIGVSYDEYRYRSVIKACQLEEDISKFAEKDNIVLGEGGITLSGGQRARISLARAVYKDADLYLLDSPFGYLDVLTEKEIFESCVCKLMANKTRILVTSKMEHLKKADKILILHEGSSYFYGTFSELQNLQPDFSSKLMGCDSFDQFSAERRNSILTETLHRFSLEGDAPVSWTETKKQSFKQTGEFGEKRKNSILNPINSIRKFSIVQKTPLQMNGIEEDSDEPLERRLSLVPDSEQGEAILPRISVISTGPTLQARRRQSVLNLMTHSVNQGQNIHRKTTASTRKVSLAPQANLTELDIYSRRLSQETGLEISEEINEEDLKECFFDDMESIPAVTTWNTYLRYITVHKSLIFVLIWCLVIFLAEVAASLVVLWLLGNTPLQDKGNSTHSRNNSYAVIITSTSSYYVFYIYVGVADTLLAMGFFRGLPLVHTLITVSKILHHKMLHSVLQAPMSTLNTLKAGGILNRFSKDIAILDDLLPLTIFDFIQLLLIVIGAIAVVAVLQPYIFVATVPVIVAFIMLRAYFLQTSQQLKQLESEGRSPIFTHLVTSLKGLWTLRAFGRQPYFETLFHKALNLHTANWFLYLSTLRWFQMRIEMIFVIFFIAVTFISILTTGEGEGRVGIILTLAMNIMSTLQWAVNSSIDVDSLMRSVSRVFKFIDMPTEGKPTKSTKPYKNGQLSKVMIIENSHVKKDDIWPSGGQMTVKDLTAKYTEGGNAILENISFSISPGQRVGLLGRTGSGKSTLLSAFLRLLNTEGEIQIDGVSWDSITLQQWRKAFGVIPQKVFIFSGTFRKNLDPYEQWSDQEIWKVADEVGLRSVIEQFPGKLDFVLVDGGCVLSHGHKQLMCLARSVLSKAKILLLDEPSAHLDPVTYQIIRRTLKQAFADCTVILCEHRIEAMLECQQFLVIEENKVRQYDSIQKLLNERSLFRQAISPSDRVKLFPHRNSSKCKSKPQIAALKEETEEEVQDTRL
pEC50: −log10 of the molar value.
Attribute: pEC50
Measured Metric: pEC50

> print(dat)
                                   molecule  value.observed
1  Cc1cccc(-n2nc(C(C)C)c3c(N4CCC(CO)CC4)cc(C(=O)O)nc32)c1 [compound 213]            6.42
2  CO[C@H]1CCN(c2cc(C(=O)O)nc3c2c(C)nn3-c2ccccc2)C1 [compound 296]            5.60
3  CNC(=O)CN1CCN(c2cc(C(=O)O)nc3c2c(C2CCC2)nn3-c2ccccc2)CC1 [compound 569]            5.51
4  CC(F)(F)c1cccc(-n2nc(C3CCC3)c3c(N4CCC(N5CCOCC5)CC4)cc(C(=O)O)nc32)c1 [compound 915]            7.30
5  CC(C)c1nn(-c2ccc(F)cc2)c2nc(C(=O)O)cc(N3CCC4(CCO4)CC3)c12 [compound 398]            6.13
6  COC[C@@H]1CCN(CC2CCN(c3cc(C(=O)O)nc4c3c(C3CCC3)nn4-c3ccccc3)CC2)C1 [compound 802]            6.11
7  CCN(CC)CCCC1CCN(c2cc(C(=O)O)nc3c2c(C(C)C)nn3-c2ccc(F)cc2)CC1 [compound 747]            5.78
8  CCN(CC)C(=O)C1CCCN(c2cc(C(=O)O)nc3c2c(C2CCC2)nn3-c2ccccc2)C1 (centres unmarked) [compound 500]            6.53

###

target: ΔF508-CFTR (Homo sapiens, UniProt P13569, DEL508-508); construct: host or cells: CFBE41o-, doxycycline-inducible; test: CFTR cell surface levels using HRP-tagged ΔF508-CFTR expressing CFBE cells, intrinsic corrector capacity; format: cell-based; details: HRP-tagged ΔF508-CFTR CFBE41o- cells, compounds alone (intrinsic corrector capacity), 20 hours at 33° C.; read-out: EC50
pEC50: −log10 of the molar value.
Rule: pEC50 of 6 or more gives satisfied; anything lower gives not satisfied.

> print(dat)
                                   compound       category
1  Cc1nn(-c2ccccc2)c2nc(C(=O)O)cc(OCCN3CCS(=O)(=O)CC3)c12 [compound 334]  not satisfied
2  CC(C)c1nn(-c2ccnc(N3CCOCC3)c2)c2nc(C(=O)O)cc(-c3ccc(N4CCOCC4)cc3)c12 [compound 201]      satisfied
3  Cc1nn(-c2ccccc2)c2nc(C(=O)O)cc(-c3ccc(N4CCN(C(C)(C)C)CC4)cc3)c12 [compound 60]  not satisfied
4  COC1CN(c2cc(C(=O)O)nc3c2c(C(C)C)nn3-c2cccc(C)c2)C1 [compound 212]  not satisfied

###

Molecular target: ΔF508-CFTR (Homo sapiens, UniProt P13569, DEL508-508)
Construct: host or cells: CFBE41o-, doxycycline-inducible
Assay: CFTR cell surface levels using HRP-tagged ΔF508-CFTR expressing CFBE cells, in the presence of a co-corrector
Assay type: cell-based
Conditions: HRP-tagged ΔF508-CFTR expressing CFBE cells, in the presence of 3 μM co-corrector
From the text: Measuring CFTR Cell Surface Levels Using HRP-Tagged AF508-CFTR Expressing CFBE Cells The HRP-tagged AF508-CFTR cell assay measures the expression of CFTR-ΔF508 at the plasma membrane. […] When HRP-tagged AF508-CFTR is present at the plasma membrane, the HRP enzyme activity can be measured. The amount of CFTR-ΔF508 that can be rescued to the plasma membrane is correlated with the amount of functional enzyme that can be measured. […]
Measured Metric: % Activation (%)

> print(dat)
                                   molecule  result.units  value.observed
1  CC(C)c1nn(-c2cc(N3CCOCC3)ccn2)c2nc(C(=O)O)cc(-c3ccc(N4CCOCC4)cc3)c12 [compound 241]             %          259.75
2  COCCN(C)c1ncc(-c2cc(C(=O)O)nc3c2c(C(C)C)nn3C2CCCCC2)cn1 [compound 237]             %          372.97
3  Cc1nn(-c2ccccc2)c2nc(C(=O)O)cc(N3CC4(CCCCC4)C3)c12 [compound 309]             %           237.3
4  Cc1nn(-c2ccccc2)c2nc(C(=O)O)cc(N3CC[C@@H](F)C3)c12 [compound 298]             %          206.45
